Biological target: T1, human IL-6 (human, UniProt P05231 30-212)
T1 construct: also called interleukin-6
T1 sequence (P05231 30-212 limits assumed): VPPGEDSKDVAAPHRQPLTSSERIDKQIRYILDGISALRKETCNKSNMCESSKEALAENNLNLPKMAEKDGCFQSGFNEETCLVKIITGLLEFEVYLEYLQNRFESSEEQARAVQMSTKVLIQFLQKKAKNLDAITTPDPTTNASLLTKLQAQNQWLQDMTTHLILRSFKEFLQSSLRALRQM
Test: SPR (Biacore T200), antibody from cell supernatant captured on Protein A, IL-6 flowed over, 37 C
measure: Kd (nM)
Answers are plain numbers, in nM.

Worked examples, 2 binders total:
| binder | measure | recorded-number |
| --- | --- | --- |
| anti-IL-6 antibody, heavy chain S35L, G66D / light chain WT (antibody, human IgG1, V domains shown, Derived as m2; Engineered human IgG1) VH: EVQLVESGGGLVQPGGSLRLSCAASGFTFSPFAMLWVRQAPGKGLEWVAKISPGGSWTYYSDTVTDRFTFSLDTSKSTAYLQMNSLRAEDTAVYYCARQLWGYYALDIWGQGTLVTVSS VL: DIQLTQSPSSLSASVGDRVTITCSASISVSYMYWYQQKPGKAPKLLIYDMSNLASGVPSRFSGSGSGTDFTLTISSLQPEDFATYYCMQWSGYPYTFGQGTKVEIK | Kd | 0.315 |
| anti-IL-6 antibody, heavy chain T65E, G66D / light chain WT (antibody, human IgG1, V domains shown, Derived as m2; Engineered human IgG1) VH: EVQLVESGGGLVQPGGSLRLSCAASGFTFSPFAMSWVRQAPGKGLEWVAKISPGGSWTYYSDTVEDRFTFSLDTSKSTAYLQMNSLRAEDTAVYYCARQLWGYYALDIWGQGTLVTVSS VL: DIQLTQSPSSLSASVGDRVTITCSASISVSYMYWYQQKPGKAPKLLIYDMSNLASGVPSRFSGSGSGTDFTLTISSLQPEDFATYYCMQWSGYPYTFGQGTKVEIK | Kd | 0.194 |

As a next step, examine the binder that follows.
Fill in reported Kd for this entry: anti-IL-6 antibody, heavy chain T63I, G66D / light chain WT (antibody, human IgG1, V domains shown, Derived as m2; Engineered human IgG1) VH: EVQLVESGGGLVQPGGSLRLSCAASGFTFSPFAMSWVRQAPGKGLEWVAKISPGGSWTYYSDIVTDRFTFSLDTSKSTAYLQMNSLRAEDTAVYYCARQLWGYYALDIWGQGTLVTVSS VL: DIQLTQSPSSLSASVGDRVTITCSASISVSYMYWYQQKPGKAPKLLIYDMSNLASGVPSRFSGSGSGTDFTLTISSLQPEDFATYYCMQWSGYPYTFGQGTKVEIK
0.211
